Target sequence: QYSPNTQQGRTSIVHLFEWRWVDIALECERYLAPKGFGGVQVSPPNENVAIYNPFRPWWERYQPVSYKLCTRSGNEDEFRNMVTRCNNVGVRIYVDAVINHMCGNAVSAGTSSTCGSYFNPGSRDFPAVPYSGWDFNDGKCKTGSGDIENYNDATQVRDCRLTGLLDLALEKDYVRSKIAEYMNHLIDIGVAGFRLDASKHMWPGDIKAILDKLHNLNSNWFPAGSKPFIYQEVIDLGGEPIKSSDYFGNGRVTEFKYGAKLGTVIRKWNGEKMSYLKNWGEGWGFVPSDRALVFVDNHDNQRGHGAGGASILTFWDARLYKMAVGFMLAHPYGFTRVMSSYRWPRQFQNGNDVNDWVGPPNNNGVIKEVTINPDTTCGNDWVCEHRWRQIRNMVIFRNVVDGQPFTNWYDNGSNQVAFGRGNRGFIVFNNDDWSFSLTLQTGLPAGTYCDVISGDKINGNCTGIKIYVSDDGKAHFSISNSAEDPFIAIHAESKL
Value kind: IC50

{"Compound": "COc1cc(-c2nc3cc(Cl)ccc3[nH]2)ccc1OCc1ccccc1 [Compound 24]", "Value kind": "IC50", "Measured value": "2160 nM"}
{"Compound": "Fc1ccc2[nH]c(-c3ccc(OCc4ccccc4)cc3)nc2c1 [Compound 31]", "Value kind": "IC50", "Measured value": "2150 nM"}
{"Compound": "Clc1ccc2[nH]c(-c3cccc(OCc4ccccc4)c3)nc2c1 [Compound 29]", "Value kind": "IC50", "Measured value": "2470 nM"}
{"Compound": "Cc1cc2nc(-c3ccc(OCc4ccccc4)cc3)[nH]c2cc1C [Compound 30]", "Value kind": "IC50", "Measured value": "2160 nM"}
